- MEASUREMENT_NOTES: Cytotoxicity against HEL after 3 days
- Type: cell-based
- CONDITION_PARAMETERS: human, HEL cells
Please respond with reported log10(CC50 at 72 h) for every item in the list.
Record value = log10 of CC50 at 72 h given in µM.

According to the records, this compound "CC(C)c1ccc(Nc2ncnc3c2ncn3C/C=C/CP(=O)(OCOC(=O)C(C)(C)C)OCOC(=O)C(C)(C)C)cc1" displays log10(CC50 at 72 h) of 1.51

Sample "CC(C)(C)C(=O)OCOP(=O)(C/C=C/Cn1cnc2c(Cl)nc(N)nc21)OCOC(=O)C(C)(C)C" ; log10(CC50 at 72 h) observed: 0.73

Sure, the documented log10(CC50 at 72 h) for "CC(C)(C)C(=O)OCOP(=O)(C/C=C/Cn1cnc2c(NC3CCCCC3)ncnc21)OCOC(=O)C(C)(C)C" is 1.06

Measured log10(CC50 at 72 h), Nc1nc2c(ncn2COCCO)c(=O)[nH]1 [ACYCLOVIR] : 2.13

The compound "COc1nc(N)nc2c1ncn2C/C=C/CP(=O)(OCOC(=O)C(C)(C)C)OCOC(=O)C(C)(C)C" showed log10(CC50 at 72 h) equal to 0.20
